# System: MCF-10A
# Test description: MTT cytotoxicity assay, MCF-10A
# Type: cell-based, Human
# Particulars: non-cancerous cell line MCF-10A, serum-free media, 48 h
Structures can show the parent of a compound that is named as a salt.
Outcome measure: IC50 (nM)
Give bare numbers, in nM.

Just so you know, measured IC50 for COc1cccc2c1C(=O)c1c(O)c3c(c(O)c1C2=O)C[C@@](O)(C(=O)CO)C[C@@H]3O[C@H]1C[C@H](N)[C@H](O)[C@H](C)O1 [Dox, Doxorubicin hydrochloride] came out at 240
